Below, each entry is listed with its recorded abundance fitness.
B1: Chromodomain-helicase-DNA-binding protein 4, residues 444 to 496; numbered along this chain, Q14839 (parent)
chain: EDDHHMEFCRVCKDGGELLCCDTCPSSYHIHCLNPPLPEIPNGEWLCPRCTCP

Variants of: B1
Experiment: abundance fitness (aPCA) (normalised: wild type 0, dead -1); higher = more abundant; growth selection in yeast, the domain comes from the species named
Conditions: Homo sapiens

MUTATION_ID: R49T
abundance fitness: 0.043
//
MUTATION_ID: K13M
abundance fitness: -0.2
//
MUTATION_ID: D22R
abundance fitness: -0.058
//
MUTATION_ID: P35A
abundance fitness: -0.296
//
MUTATION_ID: C21R
abundance fitness: -0.762
//
MUTATION_ID: P36G
abundance fitness: -0.244
//
MUTATION_ID: L19C
abundance fitness: -0.075
//
MUTATION_ID: D14Q
abundance fitness: 0.209
//
MUTATION_ID: D14E
abundance fitness: 0.223
//
MUTATION_ID: L33C
abundance fitness: -0.421
//
MUTATION_ID: P48H
abundance fitness: -0.278
//
MUTATION_ID: H29P
abundance fitness: -0.814
//
MUTATION_ID: E7R
abundance fitness: -0.174
//
MUTATION_ID: C20I
abundance fitness: 0.103
//
MUTATION_ID: T51P
abundance fitness: 0.031
//
MUTATION_ID: H4A
abundance fitness: -0.14
//
MUTATION_ID: N34I
abundance fitness: -0.075
//
MUTATION_ID: C52Y
abundance fitness: -0.019
//
MUTATION_ID: P41S
abundance fitness: -0.226
//
MUTATION_ID: E17M
abundance fitness: -0.098
//
MUTATION_ID: E17Y
abundance fitness: -0.644
//
MUTATION_ID: S27T
abundance fitness: -0.044
//
MUTATION_ID: S27Q
abundance fitness: -0.064
//
MUTATION_ID: L19Q
abundance fitness: -0.157
//
MUTATION_ID: P38D
abundance fitness: -0.031
//
MUTATION_ID: E17F
abundance fitness: -0.395
//
MUTATION_ID: C9T
abundance fitness: -0.815
//
MUTATION_ID: D3S
abundance fitness: 0.105
//
MUTATION_ID: T23S
abundance fitness: -0.044
//
MUTATION_ID: W45T
abundance fitness: -0.43
//
MUTATION_ID: R49W
abundance fitness: -0.132
//
MUTATION_ID: I30T
abundance fitness: -0.044
//
MUTATION_ID: C24A
abundance fitness: -0.739
//
MUTATION_ID: P25R
abundance fitness: 0.032
//
MUTATION_ID: E44Q
abundance fitness: -0.104
//
MUTATION_ID: C9N
abundance fitness: -0.689
//
MUTATION_ID: E7F
abundance fitness: -0.002
//
MUTATION_ID: L18G
abundance fitness: -0.732
//
MUTATION_ID: D14P
abundance fitness: -1.02
//
MUTATION_ID: C21V
abundance fitness: -1.05
//
MUTATION_ID: E44V
abundance fitness: -0.143
//
MUTATION_ID: H5M
abundance fitness: -0.12
//
MUTATION_ID: N34R
abundance fitness: -0.205
//
MUTATION_ID: D2C
abundance fitness: -0.425
//
MUTATION_ID: R10F
abundance fitness: 0.059
//
MUTATION_ID: I30R
abundance fitness: -0.016
//
MUTATION_ID: D22H
abundance fitness: -0.02
//
MUTATION_ID: P25C
abundance fitness: -0.087
//
MUTATION_ID: E39L
abundance fitness: -0.189
//
MUTATION_ID: C52M
abundance fitness: 0.433
//
MUTATION_ID: C24K
abundance fitness: -0.702
//
MUTATION_ID: F8S
abundance fitness: -0.124
//
MUTATION_ID: L19A
abundance fitness: 0.118
//
MUTATION_ID: P41I
abundance fitness: -0.106
//
MUTATION_ID: E7V
abundance fitness: -0.205
//
MUTATION_ID: C47G
abundance fitness: -0.652
//
MUTATION_ID: G16V
abundance fitness: -0.842
//
MUTATION_ID: D14V
abundance fitness: -0.089
//
MUTATION_ID: H4Y
abundance fitness: 0.078
//
MUTATION_ID: K13D
abundance fitness: -0.243
//
MUTATION_ID: N42F
abundance fitness: -0.219
//
MUTATION_ID: Y28K
abundance fitness: -0.833
//
MUTATION_ID: D22Y
abundance fitness: -0.112
//
MUTATION_ID: H31S
abundance fitness: -0.203
//
MUTATION_ID: E39N
abundance fitness: 0.026
//
MUTATION_ID: S26C
abundance fitness: -0.05
